Recorded pIC50 by entry
System under test: trypsin-activated recombinant human renin (Homo sapiens, UniProt P00797)
Sequence (P00797 67-406): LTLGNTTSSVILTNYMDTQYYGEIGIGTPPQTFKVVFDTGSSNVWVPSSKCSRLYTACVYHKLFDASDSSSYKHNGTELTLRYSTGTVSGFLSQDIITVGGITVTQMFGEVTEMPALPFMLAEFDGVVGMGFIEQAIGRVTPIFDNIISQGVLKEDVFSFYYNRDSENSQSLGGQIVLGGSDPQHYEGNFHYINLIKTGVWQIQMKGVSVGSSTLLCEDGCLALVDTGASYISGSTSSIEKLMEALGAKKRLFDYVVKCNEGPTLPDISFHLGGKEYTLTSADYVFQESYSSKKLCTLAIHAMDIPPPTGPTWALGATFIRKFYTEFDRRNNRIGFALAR
Protocol summary: Renin fluorescence assay (internally quenched peptide substrate)
Assay type: biochemical
Test context: compounds I*
pIC50: −log10 of the molar value.

A selection of reference data follows.
[[record]]
compound = "CNC[C@@H](NC(=O)N1CCC[C@@H]([C@@H](OCCNC(=O)OC)c2cccc(Cl)c2)C1)[C@@H](O)C1CCCC1 [I*-67a]"
reported_metric = "pIC50"
reported_value = "> 8.00"

[[record]]
compound = "CNC[C@H](C[C@H]1CCCCOC1)NC(=O)N1CCC[C@@H]([C@@H](OCCNC(=O)OC)c2cc(F)cc(Cl)c2)C1 [I*-141a]"
reported_metric = "pIC50"
reported_value = "> 9.00"

[[record]]
compound = "CNC[C@H](CC1CCOCC1)NC(=O)N1CCCC([C@@H](OCCNC(=O)OC)c2c(C)ccc(F)c2F)C1 (some centres unmarked) [I*-115a]"
reported_metric = "pIC50"
reported_value = "> 8.00"

[[record]]
compound = "COC(=O)NCCO[C@@H](c1cccc(F)c1)[C@@H]1CCCN(C(=O)NC[C@@H](N)C[C@H]2CCCCOC2)C1 [I*-28a]"
reported_metric = "pIC50"
reported_value = "> 8.00"

[[record]]
compound = "CNC[C@H](C[C@H]1CCCCOC1)NC(=O)N1CCC[C@@H]([C@@H](OCCNC(=O)OC)c2ccccc2F)C1 [I*-57a]"
reported_metric = "pIC50"
reported_value = "> 8.00"

[[record]]
compound = "COCC(C)(C)C[C@H](N)CNC(=O)N1CCC[C@@H]([C@@H](OCCNC(=O)OC)c2cccc(Cl)c2)C1 [I*-35a]"
reported_metric = "pIC50"
reported_value = "> 7.70"

[[record]]
compound = "COC(=O)NCCO[C@@H](c1cc(Cl)ccc1C)[C@@H]1CCCN(C(=O)NC[C@@H](N)C[C@H]2CCCCOC2)C1 [I*-109a]"
reported_metric = "pIC50"
reported_value = "> 9.00"

[[record]]
compound = "CCNC[C@H](CC1CCCCC1)NC(=O)N1CCC[C@@H]([C@@H](OCCNC(=O)OC)c2cccc(Cl)c2)C1 [I*-88a]"
reported_metric = "pIC50"
reported_value = "> 9.00"

[[record]]
compound = "CNC[C@H](CC12CC3CC(CC1C3)C2)NC(=O)N1CCC[C@@H]([C@@H](OCCNC(=O)OC)c2ccccc2)C1 [I*-74a]"
reported_metric = "pIC50"
reported_value = "> 7.70"

[[record]]
compound = "CNC[C@H](CC1CCC(O)CC1)NC(=O)N1CCC[C@@H]([C@@H](OCCNC(=O)OC)c2cccc(F)c2)C1 (some centres unmarked) [I*-51a]"
reported_metric = "pIC50"
reported_value = "< 7.30"


Asked: Provide one value: measured pIC50 of CNC[C@H](C[C@H]1CCC(=O)N(C)C1)NC(=O)N1CCC[C@@H]([C@@H](OCCNC(=O)OC)c2cccc(F)c2)C1 [I*-76a]
Given back: < 7.30

* * *

System under test: trypsin-activated recombinant human renin (Homo sapiens)
Sequence (P00797 67-406): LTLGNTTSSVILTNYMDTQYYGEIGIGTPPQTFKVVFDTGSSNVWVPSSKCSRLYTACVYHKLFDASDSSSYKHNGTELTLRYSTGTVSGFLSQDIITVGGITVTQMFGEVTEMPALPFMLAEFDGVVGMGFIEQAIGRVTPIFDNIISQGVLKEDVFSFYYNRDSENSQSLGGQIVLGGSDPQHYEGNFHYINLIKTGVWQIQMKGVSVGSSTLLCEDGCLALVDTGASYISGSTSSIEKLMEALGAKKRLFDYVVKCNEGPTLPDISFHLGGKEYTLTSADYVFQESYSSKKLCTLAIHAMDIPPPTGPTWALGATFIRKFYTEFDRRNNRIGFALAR
Protocol summary: Renin fluorescence assay (internally quenched peptide substrate)
Assay type: biochemical
Test context: compounds I*
pIC50: −log10 of the molar value.
Parameter: pIC50. Scope: all listed entries.

Consider the reported pIC50 for these compounds:
[[record]]
compound = "CNC[C@H](CC1CCC(F)(F)CC1)NC(=O)N1CCC[C@@H]([C@@H](OCCNC(=O)OC)c2cccc(Cl)c2)C1 [I*-146a]"
reported_value = "> 9.00"

[[record]]
compound = "CNC[C@H](CC1CCOCC1)NC(=O)N1CCC[C@@H]([C@@H](OCCNC(=O)OC)c2cc(Cl)ccc2C)C1 [I*-101a]"
reported_value = "> 8.00"


Asked: For the compound CNC[C@H](C[C@H]1CCCC[C@@H]1O)NC(=O)N1CCC[C@@H]([C@@H](OCCNC(=O)OC)c2cccc(Cl)c2)C1 (relative stereo) [I*-105a] , give its measured pIC50 value.
Given back: > 8.00

* * *

System under test: trypsin-activated recombinant human renin (Homo sapiens, UniProt P00797)
Protocol summary: Renin fluorescence assay (internally quenched peptide substrate)
Assay type: biochemical
Test context: compounds I*
Reported metric: IC50

[[record]]
compound = "CCC[C@](OCCNC(=O)OC)(c1cccc(Cl)c1)[C@@H]1CCCN(C(=O)N[C@H](CNC)CC2CCCCC2)C1 [I*-150a]"
system_under_test = "trypsin-activated recombinant human renin (Homo sapiens, UniProt P00797)"
reported_value = "< 50 nM"


Asked: Query IC50 for CNC[C@H](C[C@H]1CCC(C)(C)OC1)NC(=O)N1CCC[C@@H]([C@@H](OCCNC(=O)OC)c2ccccc2)C1 [I*-156a]
Given back: < 20 nM

Asked: Specify reported IC50 for the compound shown: CNC[C@H](CC1CCOCC1)NC(=O)N1CCCC[C@@H]([C@@H](OCCNC(=O)OC)c2cccc(Cl)c2)C1 [I*-108a]
Given back: < 50 nM

Asked: Please indicate IC50 recorded for CCNC(=O)CO[C@@H](c1cccc(Cl)c1)[C@@H]1CCCN(C(=O)N[C@H](CNC)C[C@H]2CCCCOC2)C1 [I*-61a]
Given back: < 10 nM

Asked: Please give measured IC50 of the following entry: CCC(C)(C)C[C@@H](CNC)NC(=O)N1CCC[C@@H]([C@@H](OCCNC(=O)OC)c2cccc(F)c2)C1 [I*-7a]
Given back: < 10 nM

Asked: Specify reported IC50 for the compound shown: CNC[C@H](CC1CCOCC1)NC(=O)N1CCC[C@@H]([C@@H](OCCNC(=O)OC)c2cc(F)ccc2F)C1 [I*-69a]
Given back: < 50 nM

Asked: Provide one value: measured IC50 of CNC[C@H](CC1CCCCCC1)NC(=O)N1CCC[C@@H]([C@@H](OCCNC(=O)OC)c2cccc(F)c2)C1 [I*-39a]
Given back: < 1 nM

Asked: Output measured IC50 for this item: CNC[C@H](CC1CCOC1)NC(=O)N1CCC[C@@H]([C@@H](OCCNC(=O)OC)c2cccc(F)c2)C1 (stereo partly shown) [I*-6a]
Given back: > 50 nM

Asked: In one line, give reported IC50 of the entry CNC[C@H](C[C@H]1CCCOC1)NC(=O)N1CCCC[C@@H]([C@@H](OCCNC(=O)OC)c2cccc(F)c2)C1 [I*-56a] .
Given back: < 10 nM

Asked: Name the recorded IC50 of the compound listed here: CNCC(C[C@@H]1C[C@@H](F)[C@@H](F)C1)NC(=O)N1CCC[C@@H]([C@@H](OCCNC(=O)OC)c2cccc(Cl)c2)C1 (stereo partly shown) [I*-125a]
Given back: < 10 nM

Asked: Please list IC50 recorded for the compound CC[C@@H](NC)[C@H](CC1CCCCC1)NC(=O)N1CCC[C@@H]([C@@H](OCCNC(=O)OC)c2cccc(Cl)c2)C1 [I*-130a]
Given back: < 20 nM

Asked: Return IC50 (reported value) for this compound: COC(=O)NCCO[C@@H](c1cccc(Cl)c1)[C@@H]1CCCN(C(=O)N[C@H]2CNC[C@@H]2CC(C)C)C1 (relative stereo) [I*-11a]
Given back: < 50 nM

Asked: Complete the entry with IC50 for CNC[C@H](CC1CCCCC1)NC(=O)N1CCC[C@@H]([C@@H](OCCNC(=O)OC)c2ccc(F)c(F)c2)C1 [I*-65a]
Given back: < 10 nM
